- measurement.protocol: Volume of distribution at steady state in C57BL/6 mouse at 1 mg/kg, iv and 2 mg/kg, po by LC/MS/MS analysis
- Type: ADME, organism-based
- test.parameters: in vivo, read-out: Vdss
assay.readout: Vd (L/kg)

[A] FC(F)(F)Oc1ccc(CN2CCC3(CC2)OC(c2cc(Cl)ccn2)c2ccccc23)cc1 (centres undefined)
[B] FC(F)(F)Oc1ccc(CN2CCC3(CC2)OC(c2cc(Cl)cc(Cl)c2)c2ccccc23)cc1 (centres undefined)
Input: Name the one with the greater Vd value, either A or B as given. Give the label under which the chosen entry appears.
Output: A

###

- measurement.protocol: Volume of distribution at steady state in C57BL/6 mouse at 0.5 mg/kg, iv and 1 mg/kg, po by LC/MS/MS analysis
- Type: ADME, organism-based
- test.parameters: in vivo, read-out: Vdss
Here, each record is paired with measured Vd data.
State just the number; it will be interpreted in L/kg.

> print(dat)
                                   molecule  recorded.result
1  CC(c1ccc(F)cn1)N1CCC2(CC1)OC(c1cc(Cl)ccn1)c1cccnc12 (racemic)               17
2  FC(F)(F)Oc1ccc(CN2CCC3(CC2)OC(c2cc(Cl)cc(Cl)c2)c2ccncc23)cc1 (racemic)               15
3  CC(C)(O)C(c1ccccc1)N1CCC2(CC1)OC(c1cc(Cl)cc(Cl)c1)c1cccnc12 (racemic)              7.3

Let's switch to this molecule now.
Input: Consider the molecule shown here: FC(F)(F)Oc1ccc(CN2CCC3(CC2)OC(c2ccccn2)c2ccccc23)cc1 (racemic) What is its recorded Vd?
Output: 26
